Tested on: huH-1 (Hepatocellular Carcinoma);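 note: after 72 h of two-drug dosing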
Experiment: Bliss excess, mean over the matrix (fraction); higher = more synergy
Please provide measured Bliss excess for the entries that follow.
Give the value as a plain number.

Inquiry: What value of Bliss excess has been reported for the following compound? CC1(C)CCC(CN2CCN(c3ccc(C(=O)NS(=O)(=O)c4ccc(NCC5CCOCC5)c([N+](=O)[O-])c4)c(Oc4cnc5[nH]ccc5c4)c3)CC2)=C(c2ccc(Cl)cc2)C1 [Venetoclax] + C=CCn1c(=O)c2cnc(Nc3ccc(N4CCN(C)CC4)cc3)nc2n1-c1cccc(C(C)(C)O)n1 [AZD1775] (first compound max 1 µM, partner max 1 µM)
Reply text: -0.066

Inquiry: Next compound: Cc1cc2ncnn2cc1Nc1ncc2c(n1)n(C1CCOCC1)c(=O)n2C [AZD7648] + CN(C)CCCOc1ccc(-c2ccc3ncc4c(c3c2)n(C2CCOCC2)c(=O)n4C)cn1 [AZD0156] (first compound max 10 µM, 7x7, partner max 1 µM)
Reply text: 0.0674

Inquiry: Next compound: Cn1cnc2c(F)c(Nc3ccc(Br)cc3Cl)c(C(=O)NOCCO)cc21 [Selumetinib] + CCN(CCO)CCCOc1ccc2c(Nc3cc(CC(=O)Nc4cccc(F)c4)[nH]n3)ncnc2c1 [AZD2811] (first compound max 10 µM, 7x7, partner max 1 µM)
Reply text: -0.0492

Inquiry: Next compound: NC1(C(=O)N[C@@H](CCO)c2ccc(Cl)cc2)CCN(c2ncnc3[nH]ccc23)CC1 [Capivasertib] + CCN(CCO)CCCOc1ccc2c(Nc3cc(CC(=O)Nc4cccc(F)c4)[nH]n3)ncnc2c1 [AZD2811] (first compound max 10 µM, 7x7, partner max 1 µM)
Reply text: -0.0695

Inquiry: Next compound: CN(CCO)CC[C@H](CSc1ccccc1)Nc1ccc(S(=O)(=O)NC(=O)c2ccc(N3CCC([C@@H](O)c4ccccc4-c4ccc(Cl)cc4)CC3)cc2)cc1S(=O)(=O)C(F)(F)F [AZD4320] + C=CCn1c(=O)c2cnc(Nc3ccc(N4CCN(C)CC4)cc3)nc2n1-c1cccc(C(C)(C)O)n1 [AZD1775] (first compound max 1 µM, partner max 1 µM)
Reply text: 0.01

Inquiry: Next compound: CC(=O)c1c(C)c2cnc(Nc3ccc(N4CCNCC4)cn3)nc2n(C2CCCC2)c1=O [Palbociclib] + CN(CC[C@H](CSC1=CC=CC=C1)NC2=C(C=C(C=C2)S(=O)(=O)NC(=O)C3=CC=C(C=C3)N4CCC(CC4)[C@H](C5=CC=CC=C5C6=CC=C(C=C6)Cl)O)S(=O)(=O)C(F)(F)F)CCO [AZD4320] (first compound max 10 µM, 7x7, partner max 1 µM)
Reply text: -0.0294

Inquiry: Next compound: Cc1c2c(nn1C)CSCc1cc(n(C)n1)CSc1cc(c3ccccc3c1)OCCCc1c(C(=O)O)n(C)c3c-2c(Cl)ccc13 [AZD5991] + C[C@@H]1COCCN1C2=NC(=NC(=C2)C3(CC3)[S@](=N)(=O)C)C4=C5C=CNC5=NC=C4 [AZD6738] (first compound max 1 µM, 7x7, partner max 10 µM)
Reply text: -0.0302

Inquiry: Next compound: CC1(C)CCC(CN2CCN(c3ccc(C(=O)NS(=O)(=O)c4ccc(NCC5CCOCC5)c([N+](=O)[O-])c4)c(Oc4cnc5[nH]ccc5c4)c3)CC2)=C(c2ccc(Cl)cc2)C1 [Venetoclax] + Cc1cc2ncnn2cc1Nc1ncc2c(n1)n(C1CCOCC1)c(=O)n2C [AZD7648] (first compound max 1 µM, 7x7, partner max 10 µM)
Reply text: -0.0511

Inquiry: Next compound: CN(C)CCCOc1ccc(-c2ccc3ncc4c(c3c2)n(C2CCOCC2)c(=O)n4C)cn1 [AZD0156] + CCN(CCO)CCCOc1ccc2c(Nc3cc(CC(=O)Nc4cccc(F)c4)[nH]n3)ncnc2c1 [AZD2811] (first compound max 1 µM, 7x7, partner max 1 µM)
Reply text: 0.0049

Inquiry: Next compound: CCc1c2c(nc3ccc(O)cc13)-c1cc3c(c(=O)n1C2)COC(=O)[C@]3(O)CC [SN-38] + CN(C)CCCOc1ccc(-c2ccc3ncc4c(c3c2)n(C2CCOCC2)c(=O)n4C)cn1 [AZD0156] (first compound max 0.3 µM, 7x7, partner max 1 µM)
Reply text: 0.0502

Inquiry: Next compound: CN(C)CCCOc1ccc(-c2ccc3ncc4c(c3c2)n(C2CCOCC2)c(=O)n4C)cn1 [AZD0156] + C=CCn1c(=O)c2cnc(Nc3ccc(N4CCN(C)CC4)cc3)nc2n1-c1cccc(C(C)(C)O)n1 [AZD1775] (first compound max 1 µM, partner max 1 µM)
Reply text: 0.0041

Inquiry: Next compound: Cn1cnc2c(F)c(Nc3ccc(Br)cc3Cl)c(C(=O)NOCCO)cc21 [Selumetinib] + C[C@@H]1COCCN1C2=NC(=NC(=C2)C3(CC3)[S@](=N)(=O)C)C4=C5C=CNC5=NC=C4 [AZD6738] (first compound max 10 µM, 7x7, partner max 10 µM)
Reply text: -0.0551

Inquiry: Next compound: CC1(C)CCC(CN2CCN(c3ccc(C(=O)NS(=O)(=O)c4ccc(NCC5CCOCC5)c([N+](=O)[O-])c4)c(Oc4cnc5[nH]ccc5c4)c3)CC2)=C(c2ccc(Cl)cc2)C1 [Venetoclax] + CCN(CCO)CCCOc1ccc2c(Nc3cc(CC(=O)Nc4cccc(F)c4)[nH]n3)ncnc2c1 [AZD2811] (first compound max 1 µM, 7x7, partner max 1 µM)
Reply text: -0.0337
